test system: 8226/Dox40; experiment: FMCA, 8226/Dox40 doxorubicin-resistant myeloma; format: cell-based; settings: read-out: EC50 (μM) in various cancer cell lines: 8226/Dox40
experimental_readout: EC50 (µM)

Look over these answered cases.
c1cc(Nc2nccc(NCc3ccc4[nH]cnc4c3)n2)c2cc[nH]c2c1 = 46.3
COc1ccc2[nH]cc(CCNc3nc(C)cc(NCc4ccc5[nH]ccc5c4)n3)c2c1 = 2.58
Cc1cc2cc(Nc3ccnc(NCc4ccc5[nH]ccc5c4)n3)ccc2[nH]1 = 0.41

I: c1cc(Nc2nccc(NCc3ccc4[nH]ccc4c3)n2)c2cc[nH]c2c1
II: c1cc(Nc2nccc(NCc3ccc4[nH]ccc4c3)n2)c2cn[nH]c2c1
III: COc1ccc2[nH]cc(CCNc3nccc(NCc4ccc5[nH]ccc5c4)n3)c2c1
Exam item: Put the items in sequence by EC50, from largest down. Put the labels in the requested order and list them out.
Marked response: III, II, I
(III: 1.81 µM, II: 1.1 µM, I: 0.37 µM)

====

Collected pEC50 values appear next to each entry.
test system: CCRF-CEM cancer cells - leukaemia; assay: Fluorometric Microculture Cytotoxicity Assay (FMCA), CCRF-CEM; assay type: cell-based; settings: Homo sapiens, 72 h incubation
# pEC50 = -log10(concentration in molar units)

c1cc(Nc2ccnc(NCc3ccc4[nH]ncc4c3)n2)c2cc[nH]c2c1 = 5.56

Exam item: What value of pEC50 has been reported for the following molecule? Cc1ccc2[nH]cc(CCNc3ccnc(NCc4ccc5[nH]ccc5c4)n3)c2c1
Marked response: 5.38

Exam item: Check COc1ccc2[nH]cc(CCNc3nc(C)cc(NCc4ccc5[nH]ccc5c4)n3)c2c1 too.
Marked response: 7.40

Exam item: Check Cc1cc2cc(CNc3ccnc(NCCc4c[nH]c5ccccc45)n3)ccc2[nH]1 too.
Marked response: 5.14

Exam item: Check c1cc(Nc2ccnc(NCc3ccc4[nH]ccc4c3)n2)c2cc[nH]c2c1 too.
Marked response: 5.79

====

system: CCRF-CEM cancer cells - leukaemia; experiment: Fluorometric Microculture Cytotoxicity Assay (FMCA), CCRF-CEM; format: cell-based; conditions: Homo sapiens, 72 h incubation
experimental_readout: pEC50
# pEC50 = -log10(concentration in molar units)

Look over these answered cases.
Cc1nc2cc(Nc3ccnc(NCc4ccc5[nH]ccc5c4)n3)ccc2[nH]1 = 6.17
Cc1cc(NCc2ccc3[nH]ncc3c2)nc(Nc2cccc3[nH]ccc23)n1 = 6.38

# next compound below
Exam item: What value of pEC50 has been reported for the following compound? c1ccc2c(CCNc3ccnc(NCc4ccc5[nH]ccc5c4)n3)c[nH]c2c1
Marked response: 5.50

====

tested on: MCF7; experiment: FMCA, MCF7 breast cancer; format: cell-based; details: Homo sapiens, read-out: EC50 (μM) in various cancer cell lines: MCF7
experimental_readout: EC50 (µM)

COc1ccc2[nH]cc(CCNc3nccc(NCc4ccc5[nH]ccc5c4)n3)c2c1 = 3.88
COc1ccc2[nH]cc(CCNc3nccc(NCc4ccc5[nH]ncc5c4)n3)c2c1 = 3.35
Cc1cc2cc(Nc3ccnc(NCc4ccc5[nH]cnc5c4)n3)ccc2[nH]1 = 12.4
Cc1cc(NCc2ccc3[nH]ncc3c2)nc(Nc2cccc3[nH]ccc23)n1 = 4.92
c1cc(Nc2nccc(NCc3ccc4[nH]ccc4c3)n2)c2cc[nH]c2c1 = 9
COc1ccc2[nH]cc(CCNc3nc(C)cc(NCc4ccc5[nH]ccc5c4)n3)c2c1 = 2.06
COc1ccc2[nH]cc(CCNc3nccc(NCc4ccc5[nH]c(C)cc5c4)n3)c2c1 = 2.33
c1cc(Nc2nccc(NCc3ccc4[nH]ccc4c3)n2)c2cn[nH]c2c1 = 3.08

P: Cc1cc2cc(Nc3ccnc(NCc4ccc5[nH]ccc5c4)n3)ccc2[nH]1
Q: c1cc(Nc2nccc(NCc3ccc4[nH]cnc4c3)n2)c2cc[nH]c2c1
Exam item: # compare EC50 for P vs Q ; return the one with the smaller value State the label of the item chosen.
Marked response: P
(P: 4.43 µM, Q: 28.5 µM)

Data origin: patent US8927547B2
